PROTOCOL_DESCRIPTION: ATG_NF_kB_CIS: Attagene CIS-FACTORIAL HepG2 Assay for human Nuclear Factor Kappa B (NF-kB) (AID 2282991)
RUN_PARAMETERS: HepG2 Attagene cis-factorial NF-kB reporter mRNA; actives raise or lower the signal
Method: ATG_CIS is a cell-based, multiplexed-readout assay that uses HepG2, a human liver cell line, with measurements taken at 24 hours after chemical dosing in a 24-well plate.ATG_NF_kB_CIS is one of 52 assay component(s) measured or calculated from the ATG_CIS assay. […] This assay endpoint, ATG_NF_kB_CIS, was analyzed with bidirectional fitting relative to DMSO as the negative control and baseline of activity. […]
Activity calls are given as the source filed them. How the source made its calls: active means hit-call score of the fitted dose curve at least 0.9, where 1 is the maximum; inactive means score below 0.9.
Answer with one of the outcomes given here: active, inactive

| COMPOUND | DISCRETE_LABEL |
| --- | --- |
| CCCC(=O)O | inactive |
| O=C(O)CN(CC(=O)O)CC(=O)O | inactive |
| CCC(C)N(C)C(=O)c1cc2ccccc2c(-c2ccccc2Cl)n1 (stereo not given) | inactive |
| CC(=O)O[C@]1(C(C)=O)CC[C@H]2[C@@H]3C=C(Cl)C4=CC(=O)[C@@H]5C[C@@H]5[C@]4(C)[C@H]3CC[C@@]21C | inactive |
| CCCCCCCCCCCCCCCCO | inactive |
| OCC(CO)n1cnc(-c2ccc(F)cc2)c1-c1ccnc(Oc2ccccc2)n1 | inactive |

Q) Look up the recorded call for N[C@@H](Cc1c[nH]c2ccccc12)C(=O)O in this test.
A) inactive

Q) Look up the recorded call for CC(C)COC(=O)CCCCC(=O)OCC(C)C in this test.
A) inactive

Q) Look up the recorded call for CC(=O)OC1CC(C)OC(C)O1 (stereo not given) in this test.
A) inactive

====

PROTOCOL_DESCRIPTION: APR_HepG2_NuclearSize_24hr: Apredica 24-hour HepG2 Assay for Nuclear Size (AID 2282907)
RUN_PARAMETERS: high-content imaging, actives raise or lower the signal
The source made the active and inactive calls. How the source made its calls: active means hit-call score of the fitted dose curve at least 0.9, where 1 is the maximum; inactive means score below 0.9.
Answer with one of the outcomes given here: yes (1) (active), no (0) (inactive)

Study these solved cases before continuing.
| COMPOUND | DISCRETE_LABEL |
| --- | --- |
| CCc1cc(C2=C(C(=O)O)N(c3ccccc3C(F)(F)F)S(=O)(=O)c3ccccc32)cc2c1OCO2 | no (0) |
| CN(C)C(=O)NC1(c2ccccc2)CCN(CCC[C@]2(c3ccc(Cl)c(Cl)c3)CCCN(C(=O)c3ccccc3)C2)CC1 | no (0) |
| CC(C)c1cccc(C(C)C)c1NC(=O)NS(=O)(=O)c1cc(C(C)(C)O)co1 | no (0) |
| COC(=O)CCCC(=O)OC | no (0) |
| CS(=O)(=O)c1ccc([C@@H](C[C@H]2CCC(=O)C2)C(=O)Nc2cnccn2)cc1Cl | no (0) |
| CO[C@@H]1COCC[C@@H]1N[C@@H]1CC[C@@](C(=O)N2CCc3ncc(C(F)(F)F)cc3C2)(C(C)C)C1 | no (0) |

Q) Look up the recorded call for CCCCC(CC)COP(=O)(OCC(CC)CCCC)OCC(CC)CCCC (centres undefined) in this test.
A) no (0)

Q) Look up the recorded call for O=C(N[C@@H](c1ccccc1)[C@@H]1CCCCN1)c1cccc(C(F)(F)F)c1Cl in this test.
A) yes (1)

Q) Look up the recorded call for Cc1cc(Cc2ccc(N)c(C)c2)ccc1N in this test.
A) no (0)

Q) Look up the recorded call for NC(=Nc1ccccc1)Nc1ccccc1 in this test.
A) no (0)

Q) Look up the recorded call for COC(=O)CCC(=O)OC in this test.
A) no (0)

Q) Look up the recorded call for CC(=O)[C@@]1(O)CC[C@H]2[C@@H]3CCC4=CC(=O)CC[C@]4(C)[C@H]3CC[C@@]21C in this test.
A) no (0)

Q) Look up the recorded call for CC(=O)O in this test.
A) no (0)

Q) Look up the recorded call for CCCCC(CC)COC(=O)CCCCCCCC(=O)OCC(CC)CCCC (centres undefined) in this test.
A) no (0)

Q) Look up the recorded call for N[C@@H](Cc1c[nH]c2ccccc12)C(=O)O in this test.
A) no (0)

Q) Look up the recorded call for CC(C)NCC(O)c1ccc(O)c(O)c1 (centres undefined) in this test.
A) no (0)

Q) Look up the recorded call for C=CCc1ccc(OC)c(OC)c1 in this test.
A) no (0)

Q) Look up the recorded call for CC(COCC(C)OC(=O)c1ccccc1)OC(=O)c1ccccc1 (centres undefined) in this test.
A) no (0)

Q) Look up the recorded call for Cn1cnc2c1c(=O)[nH]c(=O)n2C in this test.
A) no (0)
